- systemUnderTest: Tyrosyl-tRNA synthetase, putative (Trypanosoma cruzi (strain CL Brener))
- testDescription: Trypanosoma cruzi tyrosyl tRNA synthetase (TcYRS) _High Tyrosine SOP; further: in the data most compounds retested in dose-response had high values
- Assay type: functional
- Design: scale not given: direction of the effect not stated beside the values
- particulars: 30 µM
propertyMeasured: Percent Effect (%)
Write the number in % without appending the unit.

| compound | systemUnderTest | testResult |
| --- | --- | --- |
| COCCc1noc(CN2CCCCC2Cn2nc(C)cc2C)n1 (stereo unspecified) | Tyrosyl-tRNA synthetase, putative (Trypanosoma cruzi (strain CL Brener)) | 0.98 |
| Cc1ccn(-c2cccc(C(=O)N3CCCC(n4ccnc4C)C3)c2)n1 (stereo unspecified) | Tyrosyl-tRNA synthetase, putative (Trypanosoma cruzi (strain CL Brener)) | 5.88 |
| Cc1cnc(N2CCC3(CCN(CC4CC4)C3=O)CC2)nc1 | Tyrosyl-tRNA synthetase, putative (Trypanosoma cruzi (strain CL Brener)) | 8.7 |
| CN(CC1CCCCC1)C(=O)c1ccc(-n2ncc(C#N)c2N)cc1 | Tyrosyl-tRNA synthetase, putative (Trypanosoma cruzi (strain CL Brener)) | 4.9 |
| Cc1ccc(C(=O)N2CCC3(CC2)CC(N2CCOCC2)C3)cc1 | Tyrosyl-tRNA synthetase, putative (Trypanosoma cruzi (strain CL Brener)) | 3.87 |

Kindly review the next compound as well.
## Task Lab note: need Percent Effect for O=c1c2ccccc2nc2n1C(CSc1ccc(Cl)cc1Cl)CN2 (stereo unspecified) on Tyrosyl-tRNA synthetase, putative (Trypanosoma cruzi (strain CL Brener)), anyone have it?
## Result 1.93

* * *

- systemUnderTest: AMP-activated protein kinase, AMPK (Homo sapiens) (UniProt P54646+O43741+P54619+Q9UGJ0+Q9Y478+Q13131+Q9UGI9)
- testDescription: AMP-dependent Kinase enzyme assay. An in vitro enzyme assay that detects ADP turnover that is directly proportional to AMPK activity. This uses naive AMPK that is activated during the assay with MK-8722
- Type: functional
- Set-up: scale not given: direction of the effect not stated beside the values
- particulars: 30 µM
List of Percent Effect values.
Write the number in % without appending the unit.

Take a look at these entries with their results.
| compound | unitSpec | Percent Effect |
| --- | --- | --- |
| COCCN1CCCC(c2nccnc2-c2cccc(Cl)c2)C1 (stereo not given) | % | -11.9 |
| COC(=O)C1CCN(C(=O)Cn2ccc(-c3ccc(F)cc3)n2)CC1 | % | -0.768 |
| CN(C)S(=O)(=O)NC1CCCc2c1cnn2-c1ccc(C(C)(C)C)cc1 (stereo not given) | % | 88.7 |

Kindly review the next compound as well.
## Task // returns reported Percent Effect for input Cc1ccc(NC(=O)CN[C@H](C(N)=O)C(C)C)cc1F
## Result -14.9

* * *

- systemUnderTest: Arginase-2, mitochondrial (Homo sapiens)
- testDescription: in vitro enzyme assay to detect the production of urea directly proportional to the activity of Arginase II; further: in the data most compounds retested in dose-response had high values
- Type: functional
- Parameters: scale not given: direction of the effect not stated beside the values
- particulars: 33.3 µM
List of Percent Effect values.
Write the number in % without appending the unit.

Take a look at these entries with their results.
| molecule | Percent Effect [%] |
| --- | --- |
| CC(C)NC(=O)N1CCC2(CC(=O)N(c3cccc(C#N)c3)C2)C1 (stereo not drawn) | -3.64 |
| Cc1ncnc(NCc2cc3n(n2)CCCN(S(C)(=O)=O)C3)c1C | -1.75 |
| Cc1cc(C)n(CC2CCCCN2C(=O)c2ccc3c(c2)OCO3)n1 (stereo not drawn) | 1.33 |
| CCCn1ncc2c(C(=O)Nc3cnn(CC)c3C)cc(C3CC3)nc21 | 3.98 |
| N#Cc1cccc(S(=O)(=O)NC(=O)COc2ccc3c(c2)CCC3)c1 | -0.82 |
| Cc1noc(C)c1CC(=O)OCC(=O)N1CCc2sccc2C1 | -3.99 |
| CC(C)N(Cc1cccc(F)c1)Cc1nc2c(cnn2C)c(=O)[nH]1 | 3.28 |
| COc1ccc(F)cc1C(=O)N(C)Cc1cc(C)on1 | -0.41 |
| COc1cccc2c1OCC(C(=O)N1CCC(N3CCOC3=O)CC1)C2 (stereo not drawn) | 10.8 |
| COc1ccc(CN2C[C@@H]3COC[C@]3(CN(C)C)C2)cc1 | -1.22 |

Kindly review the next molecule as well.
## Task // returns reported Percent Effect for input NC(=O)C1(CCCc2cccnc2)CCCN(c2ncccn2)C1 (stereo not drawn)
## Result 0.885
